Reported inhibition values are given for each entry in this list.
- TEST TARGET: Tyrosine-protein kinase JAK3 (Homo sapiens) (UniProt P52333)
- Sequence (whole entry): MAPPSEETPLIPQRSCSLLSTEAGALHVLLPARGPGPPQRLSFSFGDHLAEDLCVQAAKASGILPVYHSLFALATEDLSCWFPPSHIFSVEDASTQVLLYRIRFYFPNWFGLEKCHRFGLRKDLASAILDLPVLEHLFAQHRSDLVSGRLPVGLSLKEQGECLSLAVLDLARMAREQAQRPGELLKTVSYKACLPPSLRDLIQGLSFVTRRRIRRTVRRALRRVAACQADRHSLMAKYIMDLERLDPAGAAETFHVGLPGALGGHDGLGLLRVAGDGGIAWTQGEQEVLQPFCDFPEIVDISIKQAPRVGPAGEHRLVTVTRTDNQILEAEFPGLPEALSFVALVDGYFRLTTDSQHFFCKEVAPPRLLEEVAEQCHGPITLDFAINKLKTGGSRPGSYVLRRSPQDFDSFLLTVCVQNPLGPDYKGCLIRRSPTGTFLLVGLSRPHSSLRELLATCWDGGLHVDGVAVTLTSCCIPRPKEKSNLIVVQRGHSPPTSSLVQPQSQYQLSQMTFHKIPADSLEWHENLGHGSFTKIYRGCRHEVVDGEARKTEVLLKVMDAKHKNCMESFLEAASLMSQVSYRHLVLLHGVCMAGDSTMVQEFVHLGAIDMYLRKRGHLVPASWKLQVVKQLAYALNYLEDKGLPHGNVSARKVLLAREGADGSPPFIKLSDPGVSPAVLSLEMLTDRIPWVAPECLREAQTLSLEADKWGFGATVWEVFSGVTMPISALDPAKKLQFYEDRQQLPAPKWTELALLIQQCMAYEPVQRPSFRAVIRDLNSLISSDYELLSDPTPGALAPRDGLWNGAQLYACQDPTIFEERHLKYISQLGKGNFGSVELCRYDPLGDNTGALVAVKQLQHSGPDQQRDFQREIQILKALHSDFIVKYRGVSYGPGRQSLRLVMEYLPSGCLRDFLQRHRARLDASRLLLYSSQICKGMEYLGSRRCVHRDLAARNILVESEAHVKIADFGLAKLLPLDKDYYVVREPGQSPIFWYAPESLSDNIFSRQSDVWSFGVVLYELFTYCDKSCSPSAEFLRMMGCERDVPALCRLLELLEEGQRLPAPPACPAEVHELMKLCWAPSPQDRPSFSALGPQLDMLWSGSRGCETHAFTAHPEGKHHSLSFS
- ASSAY COMMENT: Inhibition of JAK3 (unknown origin) at 1 uM by biochemical assay relative to control
Please append the unit to your numeric answer.

Previously resolved entries follow.
STRUCTURE STRING | VALUE KIND | MEASURED VALUE
Cc1c(-c2ncnc3[nH]ccc23)nnn1Cc1ccccc1OC(F)(F)F | inhibition | 20.3%
Cc1c(-c2ncnc3[nH]ccc23)nnn1Cc1ccc(C(F)(F)F)cc1 | inhibition | -8.7%

q: Data request, read-out inhibition, for `Cc1c(-c2ncnc3[nH]ccc23)nnn1CCc1ccc(C(F)(F)F)cc1`
a: 35%

---

- TEST TARGET: UniProt:P23458
- ASSAY COMMENT: Inhibition of JAK1 (unknown origin) at 1 uM by biochemical assay relative to control
VALUE KIND: inhibition (%)
Write down the numeric answer in % and omit the unit.

q: Data request, read-out inhibition, for `Cc1c(-c2ncnc3[nH]ccc23)nnn1Cc1ccc(Cl)cc1`
a: 92

q: Data request, read-out inhibition, for `Cc1c(-c2ncnc3[nH]ccc23)nnn1CCc1ccc(I)cc1`
a: 54.7

q: Data request, read-out inhibition, for `Cc1c(-c2ncnc3[nH]ccc23)nnn1Cc1ccc(S(C)(=O)=O)cc1`
a: 76.6

q: Data request, read-out inhibition, for `Cc1c(-c2ncnc3[nH]ccc23)nnn1CCCc1ccccc1`
a: 48

q: Data request, read-out inhibition, for `Cc1c(-c2ncnc3[nH]ccc23)nnn1Cc1ccc(C(C)(C)C)cc1`
a: 21.6

q: Data request, read-out inhibition, for `Cc1ccc(Cn2nnc(-c3ncnc4[nH]ccc34)c2C)cc1`
a: 74

---

- TEST TARGET: Tyrosine-protein kinase JAK1 (Homo sapiens, UniProt P23458)
- Sequence (P23458 whole entry): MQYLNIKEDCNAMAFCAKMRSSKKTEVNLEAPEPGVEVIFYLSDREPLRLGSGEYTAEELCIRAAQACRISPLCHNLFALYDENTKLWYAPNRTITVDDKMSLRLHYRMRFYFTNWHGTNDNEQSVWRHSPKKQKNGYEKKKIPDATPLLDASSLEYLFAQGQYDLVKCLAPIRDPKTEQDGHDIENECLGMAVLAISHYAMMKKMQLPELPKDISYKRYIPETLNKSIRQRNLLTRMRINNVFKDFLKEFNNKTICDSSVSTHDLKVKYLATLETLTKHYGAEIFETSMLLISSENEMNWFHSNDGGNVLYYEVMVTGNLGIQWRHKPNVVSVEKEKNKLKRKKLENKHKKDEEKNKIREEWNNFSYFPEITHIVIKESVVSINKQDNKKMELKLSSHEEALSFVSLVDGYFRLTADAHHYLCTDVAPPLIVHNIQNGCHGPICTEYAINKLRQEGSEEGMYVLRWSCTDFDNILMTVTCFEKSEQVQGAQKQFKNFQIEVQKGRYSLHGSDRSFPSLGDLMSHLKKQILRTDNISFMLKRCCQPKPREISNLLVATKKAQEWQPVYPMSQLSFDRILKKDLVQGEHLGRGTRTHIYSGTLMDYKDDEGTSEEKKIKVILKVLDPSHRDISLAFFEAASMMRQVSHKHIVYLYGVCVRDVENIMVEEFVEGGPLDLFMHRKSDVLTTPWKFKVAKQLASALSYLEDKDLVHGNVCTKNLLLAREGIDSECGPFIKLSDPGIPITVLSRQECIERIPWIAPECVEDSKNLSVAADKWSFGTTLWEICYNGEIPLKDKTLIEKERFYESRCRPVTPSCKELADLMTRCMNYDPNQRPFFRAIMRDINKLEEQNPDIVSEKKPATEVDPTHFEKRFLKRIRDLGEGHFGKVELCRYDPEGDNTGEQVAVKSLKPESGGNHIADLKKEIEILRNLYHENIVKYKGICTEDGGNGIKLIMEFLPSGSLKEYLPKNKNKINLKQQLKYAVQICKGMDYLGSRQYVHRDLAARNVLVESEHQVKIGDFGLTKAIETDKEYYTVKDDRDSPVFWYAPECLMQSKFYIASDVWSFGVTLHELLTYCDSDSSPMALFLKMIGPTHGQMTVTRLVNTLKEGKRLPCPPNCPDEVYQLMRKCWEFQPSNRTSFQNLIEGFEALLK
- ASSAY COMMENT: Inhibition of JAK1 (unknown origin) at 1 uM by biochemical assay relative to control
We use 70% as the dividing line for inhibition: on or above the line is TRUE, below is FALSE.

Below, 6 compounds whose answers are already recorded.
STRUCTURE STRING | TEST TARGET | CATEGORY LABEL
Cc1c(-c2ncnc3[nH]ccc23)nnn1Cc1cccc(OC(F)(F)F)c1 | Tyrosine-protein kinase JAK1 (Homo sapiens, UniProt P23458) | FALSE
Cc1c(-c2ncnc3[nH]ccc23)nnn1Cc1ccc(Br)cc1 | Tyrosine-protein kinase JAK1 (Homo sapiens, UniProt P23458) | TRUE
Cc1c(-c2ncnc3[nH]ccc23)nnn1Cc1ccc(F)cc1 | Tyrosine-protein kinase JAK1 (Homo sapiens, UniProt P23458) | TRUE
Cc1c(-c2ncnc3[nH]ccc23)nnn1Cc1ccccc1 | Tyrosine-protein kinase JAK1 (Homo sapiens, UniProt P23458) | FALSE
Cc1c(-c2ncnc3[nH]ccc23)nnn1Cc1ccc(C(F)(F)F)cc1 | Tyrosine-protein kinase JAK1 (Homo sapiens, UniProt P23458) | TRUE
Cc1c(-c2ncnc3[nH]ccc23)nnn1Cc1ccccc1OC(F)(F)F | Tyrosine-protein kinase JAK1 (Homo sapiens, UniProt P23458) | FALSE

In the following, a different compound is considered.
q: Textbook exercise: given the entry `Cc1c(-c2ncnc3[nH]ccc23)nnn1CCc1ccc(OC(F)(F)F)cc1` , state whether its inhibition is greater than or equal to 70%.
a: FALSE
